Data provenance: ChEMBL document CHEMBL3431459

experiment: SUPPLEMENTARY: Lipophilicity (log D) Determination by high-throughput shake-flask; format: physicochemical; details: octanol/water
VALUE_TYPE: logD

Consider the following illustrative entries.
- MOLECULE: "O=C1NCc2ccc(-c3n[nH]c([C@H]4CCCCN4C(=O)COc4ccccc4)n3)cc2N1"
  VALUE_TYPE: "logD"
  TEST_VALUE: 2.18
- MOLECULE: "O=C1Cc2cc(-c3noc([C@H]4CNCCN4C(=O)COc4ccccc4)n3)ccc2N1"
  VALUE_TYPE: "logD"
  TEST_VALUE: 1.09
- MOLECULE: "Cc1cc(-c2noc([C@H]3CCCCN3C(=O)COc3ccccc3)n2)no1"
  VALUE_TYPE: "logD"
  TEST_VALUE: 2.34
- MOLECULE: "COc1ccc(Cl)cc1S(=O)(=O)N1CC(C(=O)O)Cc2ccc(C(=O)Nc3ccccc3)cc21 (configuration not stated)"
  VALUE_TYPE: "logD"
  TEST_VALUE: 0.31
- MOLECULE: "Cn1cnc(Br)c1-c1noc([C@H]2CCCCN2C(=O)COc2ccccc2)n1"
  VALUE_TYPE: "logD"
  TEST_VALUE: 2.68
- MOLECULE: "Cc1cc(C)cc(S(=O)(=O)N2CCc3ccc(C(=O)Nc4ccc(CC(=O)O)cc4)cc32)c1"
  VALUE_TYPE: "logD"
  TEST_VALUE: 2.42

[a] N#Cc1ccc(C#C[C@H]2CCCCN2C(=O)COc2ccccc2)cc1
[b] COc1ccc(Cl)cc1S(=O)(=O)N(C)c1cccc(C(=O)Nc2nc(CC(=O)O)cs2)c1
Compare reported logD values for a and b . Which is lower? Respond with the label that goes with your answer. b
(b: 0.02, a: 3.56)

###

Biological target: Carnitine O-palmitoyltransferase 1, liver isoform (Rattus norvegicus)
Sequence (P32198 whole entry): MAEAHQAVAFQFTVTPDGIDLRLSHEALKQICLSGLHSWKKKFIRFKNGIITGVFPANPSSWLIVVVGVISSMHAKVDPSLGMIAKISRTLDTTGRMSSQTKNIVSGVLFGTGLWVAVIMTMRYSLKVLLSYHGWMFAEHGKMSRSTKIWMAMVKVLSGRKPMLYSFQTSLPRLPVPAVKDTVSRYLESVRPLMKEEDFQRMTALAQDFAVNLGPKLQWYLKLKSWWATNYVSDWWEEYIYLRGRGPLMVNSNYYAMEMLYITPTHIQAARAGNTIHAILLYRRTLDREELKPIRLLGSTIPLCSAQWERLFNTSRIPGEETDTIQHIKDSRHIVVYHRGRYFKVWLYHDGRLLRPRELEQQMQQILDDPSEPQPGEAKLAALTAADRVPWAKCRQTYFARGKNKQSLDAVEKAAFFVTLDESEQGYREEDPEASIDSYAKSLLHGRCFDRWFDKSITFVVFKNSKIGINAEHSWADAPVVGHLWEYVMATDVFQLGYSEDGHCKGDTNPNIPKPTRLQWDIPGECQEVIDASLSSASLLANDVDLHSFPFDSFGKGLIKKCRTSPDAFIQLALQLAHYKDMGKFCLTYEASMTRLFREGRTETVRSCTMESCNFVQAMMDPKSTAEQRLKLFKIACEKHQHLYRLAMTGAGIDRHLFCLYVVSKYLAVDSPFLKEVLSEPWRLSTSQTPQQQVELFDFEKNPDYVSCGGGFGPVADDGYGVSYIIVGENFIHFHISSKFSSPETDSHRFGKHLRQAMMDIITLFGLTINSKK
Assay: SUPPLEMENTARY: Inhibition of Carnitine palmitoyltransferase 1, liver isoform
VALUE_TYPE: IC50 (nM)

- SMILES_STRING: "COc1ccc(Cl)cc1S(=O)(=O)N1CCOc2c(C)cc(C(=O)Nc3nc(CC(=O)O)cs3)cc21"
  IC50 [nM]: 38.3

[a] O=C([C@H]1CCCCN1C(=O)COc1ccccc1)N1Cc2cc(Cl)c(N3CCOCC3)cc2C1
[b] O=C([C@H]1CCCCN1C(=O)COc1ccccc1)N1CCc2ccccc2C1
[c] CN1CCN(c2cc3c(cc2Cl)CN(C(=O)[C@H]2CCCCN2C(=O)COc2ccccc2)C3)CC1
[d] COc1ccc(Cl)cc1S(=O)(=O)N1CCc2c(C)cc(C(=O)Nc3ccc(CC(=O)O)cc3)cc21
# sort list by recorded IC50, greatest to least // format: requested-order list of labels b, d, a, c
(b: 596 nM, d: 238 nM, a: 121 nM, c: 66.6 nM)

[I] O=C(COc1ccccc1)N1CCCC[C@@H]1c1noc(-c2cccc(N3CCCS3(=O)=O)c2)n1
[II] COC(=O)[C@H]1CCCC[C@@H]1c1nc([C@H]2CCCCN2C(=O)COc2ccccc2)no1
[III] O=C(COc1ccccc1)N1CCCC[C@@H]1c1csc(-c2ccc(C(F)(F)F)cn2)n1
[IV] COCCN(c1cc(C(=O)Nc2ccn(CC(=O)O)n2)cc2c1OCO2)S(=O)(=O)c1cc(Cl)ccc1OC
Which order do these items take when sorted by rising IC50? List them. In your reply, arrange the labels in the requested order. I, II, IV, III
(I: 162 nM, II: 479 nM, IV: 792 nM, III: 2000 nM)

[P] COc1ccc(Cl)cc1S(=O)(=O)N1CCOc2c(Cl)cc(C(=O)Nc3ccn(CC(=O)O)n3)cc21
[Q] NC(=O)c1cncc(-c2noc([C@H]3CCCCN3C(=O)COc3ccccc3)n2)c1
Pick the one with the larger IC50: P vs Q Choose, then provide that item's label. Q

[1] COc1ccc(C)cc1S(=O)(=O)n1ccc2ccc(C(=O)Nc3ccc(CC(=O)O)cc3)cc21
[2] O=C(COc1ccccc1)N1CCCC[C@@H]1c1nc(-c2ccc(Cl)nc2)cs1
Decide: 1 or 2 , by lowest recorded IC50. The response must carry the label of the picked entry. 1
(1: 118 nM, 2: 305 nM)

[P] O=C(O)c1cccc(-c2csc([C@H]3CCCCN3C(=O)COc3ccccc3)n2)c1
[Q] Cn1cc(S(=O)(=O)c2cccc(Cl)c2)c2cc(C(=O)Nc3nc(CC(=O)O)cs3)ccc21
Of P and Q , whose reported IC50 is numerically smaller? Please indicate the selected item by its label. Q

[P] O=C(Cn1cc(-c2ccccc2)c2ccccc21)Nc1ccc(C(=O)O)cc1
[Q] Cc1ccc(-c2nc([C@H]3CCCCN3C(=O)COc3ccccc3)cs2)cn1
// pick min by IC50: P , Q Your choice should be expressed through its label. Q
(Q: 60.5 nM, P: 1390 nM)

[1] O=C1Cc2ccc(-c3n[nH]c([C@H]4CCCCN4C(=O)COc4ccccc4)n3)cc2N1
[2] COc1ccc(Cl)cc1S(=O)(=O)N1COc2c(C)cc(C(=O)Nc3nc(CC(=O)O)cs3)cc21
Hi, I'm comparing 1 with 2 and wondering which one has the bigger number for IC50. Any idea? Please reply using the label of the selected record. 1
(1: 1150 nM, 2: 65.4 nM)

###

test: SUPPLEMENTARY: Lyophilisation Solubility Assay (LYSA); type: physicochemical; settings: read-out: Kinetic_solubility
VALUE_TYPE: solubility kinetic (µg/mL)

Record excerpt, results attached:
- SMILES_STRING: "CC(=O)Nc1cc(-c2noc([C@H]3CCCCN3C(=O)COc3ccccc3)n2)ccc1F"
  solubility kinetic, µg/mL: 18
- SMILES_STRING: "O=C(COc1ccccc1)N1CCCC[C@@H]1c1nc(-c2cccs2)n[nH]1"
  solubility kinetic, µg/mL: 101
- SMILES_STRING: "CC(=O)Nc1cc(F)cc(-c2n[nH]c([C@H]3CCCCN3C(=O)COc3ccccc3)n2)c1"
  solubility kinetic, µg/mL: 37
- SMILES_STRING: "CC(=O)Nc1cc(-c2nc([C@H]3CCCCN3C(=O)COc3ccccc3)no2)ccn1"
  solubility kinetic, µg/mL: 113
- SMILES_STRING: "COc1ccc(Cl)cc1CN1C(=O)OCc2ccc(C(=O)Nc3nc(CC(=O)O)cs3)cc21"
  solubility kinetic, µg/mL: 50

[I] N#Cc1ccc(C#C[C@H]2CCCCN2C(=O)COc2ccccc2)cc1
[II] CC(=O)c1ccc(-c2nc([C@H]3CCCCN3C(=O)COc3ccccc3)no2)cc1
[III] O=C(COc1ccccc1)N1CCCC[C@@H]1c1nc(-c2cccc(-n3cn[nH]c3=O)c2)no1
[IV] CCNC(=O)Nc1cccc(-c2n[nH]c([C@H]3CCCCN3C(=O)COc3ccccc3)n2)c1
[V] O=C(Cn1cc(-c2ccccc2)c2ccccc21)Nc1ccc(C(=O)O)cc1
Arrange these 5 molecules in increasing order of solubility kinetic. Would you mind listing the labels in the order asked for? I, II, V, III, IV

[a] O=C(COc1ccccc1)N1CCCC[C@@H]1c1noc(-c2ccc(Cl)nc2)n1
[b] COc1ccc(Cl)cc1S(=O)(=O)N1CCc2c(C)cc(C(=O)Nc3ccc(C(=O)O)c(Cl)c3)cc21
[c] Cn1ccc(-c2nc([C@H]3CCCCN3C(=O)COc3ccccc3)no2)n1
[d] N#Cc1cncc(-c2noc([C@H]3CCCCN3C(=O)COc3ccccc3)n2)c1
Rank entries according to their solubility kinetic, from the largest number down. Ranked list of labels, please, in the requested order. b, c, a, d
(b: 311 µg/mL, c: 94 µg/mL, a: 32 µg/mL, d: 11 µg/mL)
